The binders listed here are annotated with their Increased relative affinity.
Target: PD-L1 (human PD-L1 protein of the ELISA of Example 16) (human, UniProt Q9NZQ7 19-238, limits assumed)
Sequence (Q9NZQ7 19-238 limits assumed): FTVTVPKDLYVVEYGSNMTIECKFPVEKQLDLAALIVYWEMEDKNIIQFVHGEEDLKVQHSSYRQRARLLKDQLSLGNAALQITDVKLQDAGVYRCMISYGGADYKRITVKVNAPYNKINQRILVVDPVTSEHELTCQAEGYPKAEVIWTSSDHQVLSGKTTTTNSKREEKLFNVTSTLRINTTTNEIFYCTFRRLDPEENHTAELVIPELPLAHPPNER
Experiment: ELISA; affinity relative to original antibody h_Nb2 VHH (SEQ ID NO.25)

[
  {
    "binder": "h_Nb2_G101R (VHH, also called 110) VHH: DVQLQESGGGLVQPGGSLRLSCAASGFTFGDRWMYWLRQAPGKGLEWVSSINPAGRSTYYADSVKGRFTISRDNAKNTLYLQMNSLKSEDTAVYYCTKDPRGYQKGQGTQVTVSS",
    "unit string": "relative",
    "Increased relative affinity": 6.5
  },
  {
    "binder": "h_Nb2_F29R (VHH, also called 113) VHH: DVQLQESGGGLVQPGGSLRLSCAASGFTRGDRWMYWLRQAPGKGLEWVSSINPAGRSTYYADSVKGRFTISRDNAKNTLYLQMNSLKSEDTAVYYCTKDPGGYQKGQGTQVTVSS",
    "unit string": "relative",
    "Increased relative affinity": 1.46
  },
  {
    "binder": "h_Nb2_G30F (VHH, also called 108) VHH: DVQLQESGGGLVQPGGSLRLSCAASGFTFFDRWMYWLRQAPGKGLEWVSSINPAGRSTYYADSVKGRFTISRDNAKNTLYLQMNSLKSEDTAVYYCTKDPGGYQKGQGTQVTVSS",
    "unit string": "relative",
    "Increased relative affinity": 5.11
  },
  {
    "binder": "h_Nb2_F29W (VHH, also called 114) VHH: DVQLQESGGGLVQPGGSLRLSCAASGFTWGDRWMYWLRQAPGKGLEWVSSINPAGRSTYYADSVKGRFTISRDNAKNTLYLQMNSLKSEDTAVYYCTKDPGGYQKGQGTQVTVSS",
    "unit string": "relative",
    "Increased relative affinity": 1.44
  },
  {
    "binder": "h_Nb2_G30W (VHH, also called 109) VHH: DVQLQESGGGLVQPGGSLRLSCAASGFTFWDRWMYWLRQAPGKGLEWVSSINPAGRSTYYADSVKGRFTISRDNAKNTLYLQMNSLKSEDTAVYYCTKDPGGYQKGQGTQVTVSS",
    "unit string": "relative",
    "Increased relative affinity": 10
  },
  {
    "binder": "h_Nb2_P100E (VHH) VHH: DVQLQESGGGLVQPGGSLRLSCAASGFTFGDRWMYWLRQAPGKGLEWVSSINPAGRSTYYADSVKGRFTISRDNAKNTLYLQMNSLKSEDTAVYYCTKDEGGYQKGQGTQVTVSS",
    "unit string": "relative",
    "Increased relative affinity": 3.98
  },
  {
    "binder": "h_Nb2_G101W (VHH, also called 111) VHH: DVQLQESGGGLVQPGGSLRLSCAASGFTFGDRWMYWLRQAPGKGLEWVSSINPAGRSTYYADSVKGRFTISRDNAKNTLYLQMNSLKSEDTAVYYCTKDPWGYQKGQGTQVTVSS",
    "unit string": "relative",
    "Increased relative affinity": 5.92
  },
  {
    "binder": "h_Nb2_P100R (VHH, also called 115) VHH: DVQLQESGGGLVQPGGSLRLSCAASGFTFGDRWMYWLRQAPGKGLEWVSSINPAGRSTYYADSVKGRFTISRDNAKNTLYLQMNSLKSEDTAVYYCTKDRGGYQKGQGTQVTVSS",
    "unit string": "relative",
    "Increased relative affinity": 7.21
  },
  {
    "binder": "h_Nb2_G30R (VHH, also called 107) VHH: DVQLQESGGGLVQPGGSLRLSCAASGFTFRDRWMYWLRQAPGKGLEWVSSINPAGRSTYYADSVKGRFTISRDNAKNTLYLQMNSLKSEDTAVYYCTKDPGGYQKGQGTQVTVSS",
    "unit string": "relative",
    "Increased relative affinity": 6.23
  },
  {
    "binder": "h_Nb2_P100Q (VHH, also called 116) VHH: DVQLQESGGGLVQPGGSLRLSCAASGFTFGDRWMYWLRQAPGKGLEWVSSINPAGRSTYYADSVKGRFTISRDNAKNTLYLQMNSLKSEDTAVYYCTKDQGGYQKGQGTQVTVSS",
    "unit string": "relative",
    "Increased relative affinity": 3.41
  }
]
